- Tested on: HeLa
- experimentNotes: Induction of cell cycle arrest in human HeLa cells assessed as accumulation at subG1 phase at 100 uM after 24 hrs by propidium iodide staining based flow cytometry (reference value: 1%)
- Assay type: functional
Activity listing for selected compounds.
recordedMetric: Activity (%)

>>> print(df.to_string())
                        chemicalstructure  recordedmetric  resultnumber
0   CCN(c1ccc(OC)cc1)c1nc(C)nc2c1nc(C)n2C        Activity            36
1  COc1ccc(N(C)c2nc(C)nc3[nH]c(C)nc23)cc1        Activity            11
2    COc1ccc(N(C)c2nc(C)nc3c2nc(C)n3C)cc1        Activity            14

====

- experimentNotes: Antiproliferative activity against human HMEC1 cells assessed as inhibition of cell proliferation after 4 days by Coulter counter based cell counting method
- Format: functional
- conditionContext: HMEC-1, 96 h
pIC50: −log10 of the molar value.
recordedMetric: pIC50

>>> df
                          chemicalstructure  result
0      COc1cccc(N(C)c2nc(C)nc3c2nc(C)n3C)c1  ≤ 4.00
1  Cc1nc(N(C)c2ccc(OC(F)(F)F)cc2)c2nc(C)n(C)c2n1  < 4.00
2       Cc1ccc(N(C)c2nc(C)nc3c2nc(C)n3C)cc1  < 4.00
3         COc1ccc(Nc2nc(C)nc3c2nc(C)n3C)cc1  ≤ 4.00
4         COc1ccc(N(C)c2ncnc3c2nc(C)n3C)cc1  ≤ 4.00
